Test system: HEK293
assayNotes: Cytotoxic Profiling of Annotated Libraries Using Quantitative High-Throughput Screening (AID 1296008); further: nearly all actives have a fitted effect of over 60% in size
appliedConditions: Five cell lines viability, CellTiter-Glo ATP luminescence, 48-72 h
Records with an inconclusive call do not appear. Active and inactive are the calls of the source. The call rests on the fitted dose curve; in most records, active means well fitted inhibition curve with a large enough effect; inconclusive means small, poorly fitted or top-dose-only effect; inactive means flat fitted curve, though single readings scatter.
// one of 1.0 = active, 0.0 = inactive, no free text

Use these answered entries as a reference point.
[[record]]
compound = "COc1cc(OC)c(OC)cc1C=O"
grouplabel = 0.0

[[record]]
compound = "CC(=O)NC1CCSC1=O (configuration not stated)"
grouplabel = 0.0

[[record]]
compound = "CC(C)c1cccc(C(C)C)c1O"
grouplabel = 0.0

[[record]]
compound = "CC(C)(N)Cc1ccccc1Cl"
grouplabel = 0.0

[[record]]
compound = "CN1C(=O)NC(=O)C(C)(C2=CCCCC2)C1=O (configuration not stated)"
grouplabel = 0.0


Prompt: Which result was noted for this compound in the test: C[C@]12CCC(=O)C=C1CC[C@@H]1[C@H]3CC[C@](C)(O)[C@@]3(C)CC[C@@H]12
Completion: 1.0

Prompt: What is the recorded call for this compound in the test? CCC(C)C(C)(COC(N)=O)COC(N)=O (configuration not stated)
Completion: 0.0

----------
assayNotes: Primary qHTS to identify inhibitors of SARS-CoV-2 cell entry (AID 1645846); further: nearly all actives have a fitted effect of over 45% in size
appliedConditions: SARS-CoV-2 pseudovirus cell entry assay, luminescence; series mostly up to 57.1 µM
Records with an inconclusive call do not appear. The source made the active and inactive calls. Calls follow the shape of the full dose curve.
API: response.call in active, inactive

Worked set:
[[record]]
compound = "C[C@]12CC[C@@H]3c4ccc(OC(=O)N(CCCl)CCCl)cc4CC[C@H]3[C@@H]1CC[C@@H]2OP(=O)(O)O"
grouplabel = "inactive"

[[record]]
compound = "CC(=O)Nc1c(I)cc(I)c(C(=O)O)c1I"
grouplabel = "inactive"

[[record]]
compound = "CCC1(C)CC(=O)NC1=O (configuration not stated)"
grouplabel = "inactive"

[[record]]
compound = "NC1CCN(c2nc3c(cc2F)c(=O)c(C(=O)O)cn3-c2ccc(F)cc2F)C1 (configuration not stated)"
grouplabel = "inactive"

[[record]]
compound = "C[C@@H](CN1CC(=O)NC(=O)C1)N1CC(=O)NC(=O)C1"
grouplabel = "inactive"

[[record]]
compound = "O=C(c1ccccc1)C(O)c1ccccc1 (configuration not stated)"
grouplabel = "inactive"

[[record]]
compound = "C[C@]12CCC(=O)C=C1CC[C@@H]1[C@@H]2CC[C@]2(C)C(=O)CC[C@@H]12"
grouplabel = "inactive"

[[record]]
compound = "CCCCC(=O)OCC(=O)[C@H]1[C@H](C)C[C@H]2[C@@H]3C[C@H](F)C4=CC(=O)C=C[C@]4(C)[C@@]3(F)[C@@H](O)C[C@@]21C"
grouplabel = "inactive"

[[record]]
compound = "N[C@@H](Cc1cc(I)c(Oc2ccc(O)c(I)c2)c(I)c1)C(=O)O"
grouplabel = "inactive"

[[record]]
compound = "CC(=O)N1CCN(c2ccc(OC[C@H]3CO[C@](Cn4ccnc4)(c4ccc(Cl)cc4Cl)O3)cc2)CC1"
grouplabel = "active"


Prompt: What did this assay record as the result for NC(N)=NS(=O)(=O)c1ccc(N)cc1 ?
Completion: inactive

Prompt: Recorded test call requested for Nc1ccc(S(N)(=O)=O)cc1
Completion: inactive

Prompt: Call for entry CC(C)C(=O)c1c(C(C)C)nn2ccccc12 :
Completion: inactive

Prompt: // param item: CCN1CCN(C(=O)N[C@@H](C(=O)N[C@@H]2C(=O)N3[C@@H]2SC(C)(C)[C@H]3C(=O)O)c2ccccc2)C(=O)C1=O ; yields the recorded call
Completion: inactive

Prompt: Could you check what this test reported for CC(=O)OCC(=O)[C@@]1(O)[C@H](OC(C)=O)C[C@H]2[C@@H]3CCC4=CC(=O)C=C[C@]4(C)[C@@]3(F)[C@@H](O)C[C@@]21C ?
Completion: inactive
